Tested on: Wolbachia pipientis
assayExplanation: Anti-Wolbachia Cell-Based Screen
Assay type: functional
Design: scale not given: in the data most compounds retested in dose-response had high values
runConditions: 5 µM
Among all 48,000 compounds or so, about 13,000 (27%) showed an effect of 50% or more. The list shows a part of the results.
Kindly state Percent Effect for each of the entries shown.
Numbers only, in %.

Examples with answers:
[
  {
    "compound": "O=C(CC1CC1)N1C[C@H]2CCN[C@H]2C1",
    "measuredMetric": "Percent Effect",
    "measurementUnits": "%",
    "val": 112.4
  },
  {
    "compound": "Cn1ccnc1CN1CC2(CCN(Cc3ccncc3)C2)C1",
    "measuredMetric": "Percent Effect",
    "measurementUnits": "%",
    "val": -5.589
  },
  {
    "compound": "Cc1cc(CN2C[C@@H]3COC[C@]3(CNS(C)(=O)=O)C2)no1.O=C(O)C(F)(F)F",
    "measuredMetric": "Percent Effect",
    "measurementUnits": "%",
    "val": -0.4635
  }
]

Each compound below has a reported value. Please supply its Percent Effect.
1. O=C(O)C(F)(F)F.O=C(O)C(F)(F)F.c1cc(CO[C@@H]2CN(Cc3ccoc3)[C@@H]3CCCO[C@@H]32)ccn1
2. O=C(O)C(F)(F)F.O=C(O)C(F)(F)F.c1cncc(COCC2CC[C@H]3[C@H]2OCCN3Cc2ccoc2)c1 (stereo partly drawn)

1: 101.1; 2: 109.4

Please state, for each entry, its recorded Percent Effect.
1. Cc1ccc(S(=O)(=O)N2C[C@@H]3CCN[C@@H]3C2)cc1
2. Cc1cc(NC2CC3(CCN(Cc4ncccc4F)C3)C2)ncn1 (stereo not drawn)
3. CCN1CCC2(CC1)CC(Nc1ncccn1)CO2 (stereo not drawn)
4. CC(C)c1nccc([C@H]2C[C@@H]3CCN(Cc4ccoc4)C[C@H]3O2)n1
5. c1ccc(-c2cc(CN3C[C@H]4CC[C@H]3C4)on2)cc1
6. Cc1cccc(CO[C@@H]2CC[C@H]3[C@H]2OCCN3Cc2ccsc2)n1.O=C(O)C(F)(F)F.O=C(O)C(F)(F)F
7. Cc1ncsc1CN1C[C@H](OCc2ccncc2)[C@H]2OCCC[C@H]21.O=C(O)C(F)(F)F.O=C(O)C(F)(F)F

1. -12.06
2. 100.5
3. -3.551
4. -1.768
5. 0.1259
6. -22.6
7. -13.88

Please give Percent Effect, item by item, for the list that follows.
1. O=C(NC1CCC1)[C@@H]1C[C@@H]2CCN(Cc3ccncc3)C[C@H]2O1.O=C(O)C(F)(F)F.O=C(O)C(F)(F)F
2. O=C(O)C(F)(F)F.O=C(O)C(F)(F)F.O=C1[C@H]2CN(Cc3ccoc3)C[C@H]2CN1Cc1ccncc1

1: -10.63; 2: 1.4

###

Tested on: Wolbachia pipientis
assayExplanation: Anti-Wolbachia Cell-Based Screen
Type: functional
Parameters: scale not given: in the data most compounds retested in dose-response had high values
runConditions: 5 µM
About 13,000 (27%) of roughly 48,000 compounds showed an effect of 50% or more. The list shows a part of the results.
measuredMetric: Percent Effect (%)
Answers are plain numbers, in %.

[
  {
    "molecule": "Cc1ccc2c(n1)N(C)CCN(CCN1CCCC1)C2.O=C(O)C(F)(F)F.O=C(O)C(F)(F)F.O=C(O)C(F)(F)F",
    "Percent Effect [%]": 31.59
  }
]

Look up Percent Effect for the entries below, preserving their order.
1. CN1CCCC(c2n[nH]c3ncccc23)C1 (stereo not given)
2. Cc1cccc(CC(=O)N2CCCC(N(C)CCCN(C)C)C2)c1 (stereo not given)
3. Cl.Cl.O=C1NC2(CCNCC2)CC1c1ccncc1 (stereo not given)
4. O=C(C1CCC1)N1CCN(Cc2cccnc2)[C@H]2CS(=O)(=O)C[C@H]21
5. COc1ccc(C(=O)C2CCCN(Cc3ccncc3)C2)c(OC)c1 (stereo not given)
6. O=S(=O)(NC[C@H]1C[C@@H]2CCN1C[C@@H]2CN1CCCC1)c1ccc(Cl)cc1

1: -5.321; 2: 81.85; 3: -8.002; 4: -3.397; 5: -2.027; 6: 14.89

# map each molecule to its Percent Effect
1. CC(C)NC(=O)CN1CCSC2(CCCCC2)C1
2. Cc1nc(CN2CCN(C(=O)Cc3cccc(Cl)c3)CC2)no1
3. Cc1ccc2c(n1)N(C)CCN(Cc1cnn(C)c1)C2
4. O=C1Nc2ccccc2C12CCCN(Cc1ccncc1)C2 (stereo not given)
5. Cc1nc(CC(=O)N2CCN(C(C)c3ccccc3F)CC2)cs1 (stereo not given)
6. COCCN1CCN(S(C)(=O)=O)Cc2cccnc21
7. CNCc1cn(C[C@H]2CC3CCN2C[C@@H]3C(=O)Nc2ccccc2)nn1 (stereo not given in full)

1: -91.97; 2: 6.745; 3: 75.85; 4: -10.97; 5: -7.662; 6: 94.34; 7: -4.498

# per-item lookup of Percent Effect; items listed below
1. Cc1ncsc1CN1C[C@@H]2CN(Cc3cccnc3)CCO[C@@H]2C1
2. O=C(NCc1cccnc1)C1=NOC2(CCCN(CCO)C2)C1 (stereo not given)
3. O=C1NCC2(CCCN(Cc3ccncc3)C2)Oc2ccccc21 (stereo not given)

[-8.283, 6.778, 106]

For every item in the list below, what is its measured Percent Effect?
1. CCCN1CCN(C(=O)c2cncnc2C)[C@H]2CS(=O)(=O)C[C@H]21
2. Cc1nc(CC(=O)N(C)C2CCCN(CCc3ccccc3)C2)cs1 (stereo not given)
3. CCCn1ncc(CN2CCCC(C(=O)c3ccc(Cl)cc3C)C2)c1C (stereo not given)
4. COC(=O)N1C[C@H]2CC[C@@H]1CN(Cc1ccncc1)C2
5. CCC(CC)NCC(C)Oc1cccnc1 (stereo not given)
6. O=C(Cc1csc(-c2ncccn2)n1)N1CCN2CCCCC2C1 (stereo not given)
7. NC1(c2nc(-c3ccccc3)cc(=O)[nH]2)CCCCC1

18.46
10.74
-13.45
-3.604
18.13
6.768
-11.2

Here are 2 molecules. What values of Percent Effect were reported for them?
1. CCCN1CCN(C(=O)c2cnc(C)nc2)[C@H]2CS(=O)(=O)C[C@H]21
2. NCC1(c2cccc(C(F)(F)F)c2)CCCCC1

1. -7.853
2. -7.297

Go through the items and report each one's Percent Effect.
1. CCN1CCN(C)C2(CCN(Cc3cccc(C)n3)CC2)C1=O.O=C(O)C(F)(F)F.O=C(O)C(F)(F)F
2. Cc1nc(CC(=O)N2CCCC(N(C)Cc3ccccc3)C2)cs1 (stereo not given)
3. CN1CCCC(c2ccc(N3CCOCC3)cn2)C1.Cl (stereo not given)
4. Oc1cccc(CN2C[C@H]3CC[C@@H]2CN(Cc2cccnc2)C3)c1
5. CC1COC2(CCN(C(=O)c3ncoc3C(C)C)CC2)O1 (stereo not given)
6. CN(C)C(=O)CN1CCN(C(=O)Cc2csc(-c3ncccn3)n2)CC1
7. CN1CCC2(CC1)CNC(=O)c1ccccc1O2

-10.53
124
96.78
8.491
0.05226
-5.623
-4.791

Batch request: Percent Effect per item, same order as input.
1. CN1CCCC1c1ccc(N2CCOCC2)cn1 (stereo not given)
2. CCCS(=O)(=O)N1CCN(CCOC)c2nc(C)ccc2C1.O=C(O)C(F)(F)F
3. O=C1CO[C@H]2CN(Cc3cccnc3)C[C@H]2N1
4. O=C1NCC2(CCCN(Cc3cccnc3)C2)Oc2ccccc21 (stereo not given)
5. Cc1cccc(CN2CCN(C(=O)N(C)C)[C@@H]3CS(=O)(=O)C[C@@H]32)n1
6. C[C@@H]1CN(Cc2cccnc2)C[C@]1(C)O

1: 81.49; 2: 12.9; 3: 0.8904; 4: 95.18; 5: -5.175; 6: 104.9

# per-item lookup of Percent Effect; items listed below
1. CCCN(CC)c1cc(C2CCNCC2)nc(C)n1
2. COCCN1CCN(S(=O)(=O)C2CC2)Cc2ccc(C)nc21.O=C(O)C(F)(F)F
3. c1ccc(CCN2C[C@@H]3OCCN(c4ncccn4)[C@@H]3C2)cc1
4. CCN(C)c1nccc(N2CCN[C@H]3CS(=O)(=O)C[C@H]32)n1
5. CN(C)c1ncc2c(n1)C1(CCN(Cc3cccnc3)C1)COC2 (stereo not given)

1: 112.1; 2: 0.9634; 3: 21.57; 4: -8.792; 5: -5.079

Which Percent Effect value is on record for "N#Cc1ccc(NCCc2n[nH]c(=O)[nH]2)cc1Cl" ?
-5.304

###

So I've got a bunch of compounds here, and I need their Percent Effect values.
Tested on: Wolbachia pipientis
assayExplanation: Anti-Wolbachia Cell-Based Screen
Format: functional
Set-up: scale not given: in the data most compounds retested in dose-response had high values
runConditions: 5 µM
The whole screen tested about 48,000 compounds, of which about 13,000 (27%) showed an effect of 50% or more. The list shows a part of the results.
Give bare numbers, in %.

[
  {
    "compound": "Cl.O=C(NCC1CCC2(CCNCC2)O1)C1CC1 (stereo not drawn)",
    "measurementUnits": "%",
    "Percent Effect": -17.62
  }
]

Please state, for each entry, its recorded Percent Effect.
1. CN1CCN([C@@H]2CN(C(=O)c3ccnnc3)[C@@H]3CCCO[C@H]23)CC1
2. CN(C)C(=O)[C@H]1CC[C@@H]2[C@@H](CCN2Cc2ccccn2)O1.O=C(O)C(F)(F)F.O=C(O)C(F)(F)F
3. Cc1cc(C(=O)N2CCC3(CCN3Cc3ccc(F)cc3)C2)no1.O=C(O)C(F)(F)F (stereo not drawn)
4. CN(C)CCN(C)C(=O)Cc1ccc2c(c1)OCCO2.O=C(O)CC(O)(CC(=O)O)C(=O)O
5. CN(C)CCN(C(=O)Cc1ccc2c(c1)OCCO2)C1CCN(C)CC1.O=C(O)CC(O)(CC(=O)O)C(=O)O
6. Cc1ccc(C(=O)N2C[C@H](N3CCOCC3)[C@@H]3OCCC[C@@H]32)cn1.O=C(O)C(F)(F)F.O=C(O)C(F)(F)F

-8.561
1.437
-18.68
107.5
109
103.6

Which Percent Effect reading was recorded for the compound "Cc1ccc(C(=O)N2C[C@@H]3CCCO[C@@H]3[C@H](N3CCCC3)C2)cn1.O=C(O)C(F)(F)F.O=C(O)C(F)(F)F" ?
-21.68

All figures here come from ChEMBL document CHEMBL3988442.
